biological target: human muscarinic acetylcholine M3 receptor (M3-ACh) (Homo sapiens, UniProt P20309); construct: expressed in transfected cells; host or cells: CHO-K1 (Chinese Hamster Ovary) cell membranes; test: Muscarinic 3 Receptor Binding Assay, % inhibition specific binding at 1 μM; details: 1 μM compound, % inhibition specific [3H]-NMS binding
Sequence (P20309 whole entry): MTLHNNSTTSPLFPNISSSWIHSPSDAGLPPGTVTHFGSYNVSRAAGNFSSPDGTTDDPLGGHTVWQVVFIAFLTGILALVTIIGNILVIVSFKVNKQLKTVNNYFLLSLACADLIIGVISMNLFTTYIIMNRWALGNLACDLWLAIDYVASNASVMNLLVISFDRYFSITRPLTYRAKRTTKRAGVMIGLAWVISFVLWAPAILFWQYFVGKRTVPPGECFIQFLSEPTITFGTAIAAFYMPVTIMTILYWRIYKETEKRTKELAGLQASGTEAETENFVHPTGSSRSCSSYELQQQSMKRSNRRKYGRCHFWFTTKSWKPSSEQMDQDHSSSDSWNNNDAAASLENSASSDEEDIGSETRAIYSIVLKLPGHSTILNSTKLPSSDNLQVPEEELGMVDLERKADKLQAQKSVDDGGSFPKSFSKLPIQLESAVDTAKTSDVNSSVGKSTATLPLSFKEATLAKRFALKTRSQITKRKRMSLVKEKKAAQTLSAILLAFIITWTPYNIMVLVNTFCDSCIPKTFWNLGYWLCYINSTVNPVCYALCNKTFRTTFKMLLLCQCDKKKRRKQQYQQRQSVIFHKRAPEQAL
experimental-readout: inhibition at 1 µM (%)
Give just the number in %; leave the unit off.

Entry Cc1cccc(C(=O)N2CCOC3(CCN(Cc4cc(F)cc(CCNC[C@H](O)c5ccc(O)c6[nH]c(=O)sc56)c4)CC3)C2)c1 — recorded inhibition at 1 µM = 86

In plain terms, O=C(COCCc1ccccc1)N1CCOC2(CCN(Cc3cc(F)cc(CCNC[C@H](O)c4ccc(O)c5[nH]c(=O)sc45)c3)CC2)C1 has a documented inhibition at 1 µM of 41

For record O=C(CCCc1cccs1)N1CCOC2(CCN(CCOc3ccc(CNC[C@H](O)c4ccc(O)c5[nH]c(=O)sc45)cc3)CC2)C1 the listed inhibition at 1 µM is 70
